# Target or system: Trace amine-associated receptor 1 (Homo sapiens) (UniProt Q96RJ0)
# Sequence (Q96RJ0 whole entry, looked up): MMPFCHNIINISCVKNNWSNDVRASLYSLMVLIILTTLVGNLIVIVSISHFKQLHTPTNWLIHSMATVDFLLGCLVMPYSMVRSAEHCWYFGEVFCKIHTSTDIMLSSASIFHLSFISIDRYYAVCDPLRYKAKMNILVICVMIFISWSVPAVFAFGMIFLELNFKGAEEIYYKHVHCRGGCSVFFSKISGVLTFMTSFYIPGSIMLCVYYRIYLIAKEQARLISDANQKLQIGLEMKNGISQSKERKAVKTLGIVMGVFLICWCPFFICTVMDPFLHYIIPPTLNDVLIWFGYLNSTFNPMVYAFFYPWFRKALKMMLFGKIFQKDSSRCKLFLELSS
# Measurement notes: blockers of beta-PEA-driven TAAR1 calcium signal – Fluo-8 calcium fluorescence, CHO RD-HGA16 cells, primary screen (AID 624466)
# Details: CHO RD-HGA16 TAAR1, Fluo-8 calcium fluorescence, antagonist; at 3 µM; stronger effect = higher value
About 5,400 (1.5%) of roughly 360,000 compounds were called active. Many of the other results were omitted from the sample, so actives are more common in it than they were.
Label rule, in plain words: inhibition of 20% and up is y, under 20% is n.

Query string: Item CC(=O)n1cc([C@H]2C=C(C(=O)N3CCOCC3)O[C@@H](OCc3ccc(CO)cc3)C2)c2ccccc21 with inhibition of 20% or above?
Result string: y

Query string: Follow-up entry: O=C(C1=C[C@H](c2coc3ccccc3c2=O)C[C@H](OCc2ccc(CO)cc2)O1)N1CCOCC1
Result string: n

Query string: Follow-up entry: CCCCNc1c(-c2cccc(Sc3ccc(OC)cc3)c2)nc2ccccn12
Result string: y

Query string: Follow-up entry: CC(=O)OCCN(CCCn1c(-c2ccncc2)nc2ccccc21)c1nc(-c2ccc(C)cc2)cs1
Result string: y

Query string: Follow-up entry: O=S1(=O)CCO[C@H]2Cc3ccccc3[C@H]2N1Cc1ccccc1
Result string: n

Query string: Follow-up entry: NC(=O)C1=C[C@@H](c2csc3ccccc23)C[C@@H](OCc2ccc(CO)cc2)O1
Result string: n

Query string: Follow-up entry: CNS(=O)(=O)c1cccc(C(=O)OCC(=O)N2c3ccccc3NC(=O)C2(C)C)c1
Result string: n

Query string: Follow-up entry: O=C(C1=C[C@H](C2CC2)C[C@H](OCc2ccc(CO)cc2)O1)N1CCN(Cc2ccccc2)CC1
Result string: n

Query string: Follow-up entry: CN1CCN(c2ccc3c(c2)OC[C@H](Cc2ccccc2)NS3(=O)=O)CC1
Result string: n

Query string: Follow-up entry: O=C(NC1CCCCC1)C(c1cc2ccccc2o1)n1c(=O)c(-c2ccco2)nc2ccccc21 (centres undefined)
Result string: n

Query string: Follow-up entry: O=C(NCc1ccc2c(c1)OCO2)c1c(-c2ccsc2)sc2ccccc12
Result string: y

Query string: Follow-up entry: CC1(C)C(=O)Nc2ccccc2N1C(=O)COC(=O)Cn1cnc2ccccc2c1=O
Result string: n

Query string: Follow-up entry: COc1ccc(NS(=O)(=O)c2ccc(C(=O)Nc3c(C)n(C)n(-c4ccccc4)c3=O)cc2)cc1
Result string: n

Query string: Follow-up entry: c1ccc(C2CNCc3c2ccc2ccccc32)cc1 (centres undefined)
Result string: y

Query string: Follow-up entry: CC(=O)N1Cc2cc(C(=O)NCc3cccc(F)c3)nc(-c3cccc(C4=CCCCC4)c3)c2[C@H]1CCO
Result string: n

Query string: Follow-up entry: COC(=O)c1ccc2nc(-c3ccccc3)c(Cc3ccc(OC)cc3C)n2c1
Result string: n

Query string: Follow-up entry: CCOCCn1c(-c2ccccc2)nc2ccccc21
Result string: n

Query string: Follow-up entry: C[C@H](O)[C@@H]1C(=O)N2CCc3c([nH]c4ccccc34)[C@@H]2C[C@@H]1N(C)C(=O)Nc1ccc(F)cc1
Result string: n

Query string: Follow-up entry: CC(=O)n1cc([C@@H]2C=C(C(=O)N3CCN(Cc4ccc5c(c4)OCO5)CC3)O[C@H](OCc3ccc(CO)cc3)C2)c2ccccc21
Result string: y

Query string: Follow-up entry: c1ccc2c(CCN3CCNC[C@H]3Cc3cccc4ccccc34)cccc2c1
Result string: y

Query string: Follow-up entry: Cc1ccc(N/C(N)=N/c2nc(C(F)(F)F)cc(C(F)(F)F)n2)cc1
Result string: n

Query string: Follow-up entry: OC(c1ccccc1)(c1ccccc1)C1CCN(CCCOc2ccc(-c3ccsc3)cc2)CC1
Result string: y

Query string: Follow-up entry: CC(=O)C1=C(C)N(Cc2ccc(Cl)cc2)C(=S)NC1c1ccc(F)cc1 (centres undefined)
Result string: y

Query string: Follow-up entry: CCCCNC(=O)C[C@@H]1C[C@@]2(C(=O)OC)CC(C)(C)CC=C2N(Cc2ccco2)C1=O
Result string: n

Query string: Follow-up entry: CCOc1ccc(NC(=O)N2CC=C(n3c(=O)[nH]c4ccccc43)CC2)cc1
Result string: y

Query string: Follow-up entry: CC1(C)OC(=O)C2=C(CC(CCc3ccccc3)OC2c2ccc(Cl)cc2)O1 (centres undefined)
Result string: n

Query string: Follow-up entry: C[C@H](O)[C@@H]1CN2CCc3ccc(-c4ccc5c(c4)OCO5)cc3[C@@H]2C[C@@H]1N(C)C(=O)C1CCCCC1
Result string: n

Query string: Follow-up entry: Cc1cccc(C)c1NC(=O)N1CC=C(n2c(=O)[nH]c3ccccc32)CC1
Result string: n

Query string: Follow-up entry: N#Cc1ccc(OCCCN2CCC(C(O)(c3ccccc3)c3ccccc3)CC2)c(F)c1
Result string: n

Query string: Follow-up entry: O=C(NCc1ccc2c(c1)OCO2)c1sccc1Br
Result string: n

Query string: Follow-up entry: COC(=O)c1ccc2nc(-c3cccc(Br)c3)c(Cc3ccc(OC)cc3C)n2c1
Result string: n

Query string: Follow-up entry: CN1CCN(C(=O)C2=C[C@H](c3ccc4c(c3)OCO4)C[C@H](OCc3ccc(CO)cc3)O2)CC1
Result string: n

Query string: Follow-up entry: CN1CCCc2nc(-c3ccccc3)ccc21
Result string: n

Query string: Follow-up entry: Cc1c(NS(=O)(=O)c2cccc(C(=O)Nc3ccc(SC(F)F)cc3)c2)c(=O)n(-c2ccccc2)n1C
Result string: y

Query string: Follow-up entry: COc1ccc(OC)c(C(=O)NC2CCCc3c2cnn3-c2cc(C)cc(C)c2)c1 (centres undefined)
Result string: n

Query string: Follow-up entry: O=C(C(=O)N1CCN(c2ccccc2)CC1)c1ccc2c(c1)OCO2
Result string: n

Query string: Follow-up entry: COc1ccc(C(=O)NC2CCCc3c2cnn3-c2cccc(C)c2C)c(OC)n1 (centres undefined)
Result string: y

Query string: Follow-up entry: COC(=O)C1=C(C)N(Cc2ccc(F)cc2)C(=S)NC1c1cccc(Cl)c1 (centres undefined)
Result string: y
